Data credit: patent US20220112292A1

For each record, write down the corresponding EC50.
Biological target: T1, CLL-1 on U937 cells (human, UniProt Q5QGZ9 1-265)
T1 construct: whole, on cells; also called CLEC12A; Clec12A
T1 sequence: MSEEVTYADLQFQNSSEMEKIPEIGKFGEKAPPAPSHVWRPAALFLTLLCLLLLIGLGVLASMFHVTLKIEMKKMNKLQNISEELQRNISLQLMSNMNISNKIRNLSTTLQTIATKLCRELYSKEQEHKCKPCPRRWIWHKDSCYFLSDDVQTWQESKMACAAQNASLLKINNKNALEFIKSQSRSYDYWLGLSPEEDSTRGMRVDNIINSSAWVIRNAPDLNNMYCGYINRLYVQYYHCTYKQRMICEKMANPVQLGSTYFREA
Assay: flow cytometry on U937 cells, 3x serial dilutions from 3 ug/ml, anti-His-PE
// note: answer is a bare numeric in nM

Problem: Give EC50 for VHH clone 1G6 (VHH, includes myc and His tags; also called 2G11; 2H2) VHH: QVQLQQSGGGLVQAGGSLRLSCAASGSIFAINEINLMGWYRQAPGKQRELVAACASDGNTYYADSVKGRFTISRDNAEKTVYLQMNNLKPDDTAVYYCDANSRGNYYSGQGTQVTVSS
Result: 0.49

Problem: Quickly give me recorded EC50 for VHH clone 1H1 (VHH, includes myc and His tags; also called 2F4) VHH: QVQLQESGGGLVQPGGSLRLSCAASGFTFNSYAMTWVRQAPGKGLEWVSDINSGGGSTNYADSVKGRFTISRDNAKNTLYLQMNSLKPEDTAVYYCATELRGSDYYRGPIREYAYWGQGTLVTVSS
Result: 81

Problem: Retrieve EC50 measured for VHH clone 2H3 (VHH, Includes myc and His tags; also called 2H3 VHH-Myc-His; VHH 2H3) VHH: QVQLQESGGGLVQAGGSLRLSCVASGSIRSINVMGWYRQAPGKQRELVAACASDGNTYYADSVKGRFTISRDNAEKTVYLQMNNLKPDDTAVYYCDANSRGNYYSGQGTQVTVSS and print it.
Result: 0.35

Problem: Look up and state reported EC50 for VHH clone 2F5 (VHH, Includes myc and His tags) VHH: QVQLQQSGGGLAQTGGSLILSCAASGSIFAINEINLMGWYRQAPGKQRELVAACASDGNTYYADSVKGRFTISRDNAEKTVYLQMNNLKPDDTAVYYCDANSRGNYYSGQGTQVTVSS
Result: 0.47
